# assay name: Solubility in water was determined
# Format: physicochemical
Hi there, I'd appreciate the recorded solubility for every entry that follows.

# molecule, solubility
records = [
    ("Cc1cc(C)c(C(C)(C)CC(=O)n2cc(C[C@@](C)(NC(=O)OCc3cc4ccccc4o3)C(=O)N[C@H](C)c3ccccc3)c3ccccc32)c(OP(=O)([O-])[O-])c1.[Na+].[Na+]", "31 mg/mL"),
    ("C[C@@H](NC(=O)[C@@](C)(Cc1cn(C(=O)OCOC(=O)c2ccc(COP(=O)([O-])[O-])cc2)c2ccccc12)NC(=O)OCc1cc2ccccc2o1)c1ccccc1.[Na+].[Na+]", "58 mg/mL"),
    ("CC(NC(=O)[C@@](C)(Cc1c[nH]c2ccccc12)NC(=O)OCc1cc2ccccc2o1)c1ccccc1 (single isomer, unassigned)", "< 0.001 mg/mL"),
    ("C[C@@H](NC(=O)[C@@](C)(Cc1cn(P(=O)([O-])[O-])c2ccccc12)NC(=O)OCc1cc2ccccc2o1)c1ccccc1.[Na+].[Na+]", "76 mg/mL"),
]

Lab note: next molecule to report on.
Qu. Requested read-out: solubility. Entry: C[C@@H](NC(=O)[C@@](C)(Cc1cn(C(=O)c2ccccc2COP(=O)([O-])[O-])c2ccccc12)NC(=O)OCc1cc2ccccc2o1)c1ccccc1.[Na+].[Na+]
Ans. 55 mg/mL
